METHOD NOTES: Pharmacokinetics and absolute bioavailability in plasma after single oral or intravenous administration (Example 1)
CONDITIONS: both, domestic short hair (HsdCpb: CADS), plasma, po, 1 mg/kg, absolute bioavailability after oral administration, oral 1 mg/kg

COMPOUND: CCCc1nc2c(C)cc(-c3nc4ccccc4n3C)cc2n1Cc1ccc(-c2ccccc2C(=O)O)cc1 [telmisartan]
bioavailability [%]: 33.6

====

METHOD NOTES: Pharmacokinetics and absolute bioavailability in plasma after single oral or intravenous administration (Example 1)
CONDITIONS: both, domestic short hair (HsdCpb: CADS), plasma, po, 1 mg/kg
READOUT: CL/F (mL/min/kg)

STRUCTURE STRING: CCCc1nc2c(C)cc(-c3nc4ccccc4n3C)cc2n1Cc1ccc(-c2ccccc2C(=O)O)cc1
READOUT: CL/F
RESULT: 172
